Biological target: CaHse1
Assay: SPOT peptide array binding signal intensity (averaged, normalized) (arbitrary units (background-subtracted, floor 0; scale differs between SH3 domains)); higher = stronger binding of the SH3 domain to the peptide
Property: SPOT peptide array binding signal intensity

Provide reported SPOT peptide array binding signal intensity for each item, in the same order as listed.
1. DAPASKPSVPPRNYF
2. GAGERPRLVPRPINV
3. FTLPPPPPPPGLDEL

1: ≤ 0; 2: ≤ 0; 3: ≤ 0
